# Study system: Recombinant human integrin α5β1 (Homo sapiens, UniProt P05556+P08648)
# Sequence (P08648 42-995 limits assumed): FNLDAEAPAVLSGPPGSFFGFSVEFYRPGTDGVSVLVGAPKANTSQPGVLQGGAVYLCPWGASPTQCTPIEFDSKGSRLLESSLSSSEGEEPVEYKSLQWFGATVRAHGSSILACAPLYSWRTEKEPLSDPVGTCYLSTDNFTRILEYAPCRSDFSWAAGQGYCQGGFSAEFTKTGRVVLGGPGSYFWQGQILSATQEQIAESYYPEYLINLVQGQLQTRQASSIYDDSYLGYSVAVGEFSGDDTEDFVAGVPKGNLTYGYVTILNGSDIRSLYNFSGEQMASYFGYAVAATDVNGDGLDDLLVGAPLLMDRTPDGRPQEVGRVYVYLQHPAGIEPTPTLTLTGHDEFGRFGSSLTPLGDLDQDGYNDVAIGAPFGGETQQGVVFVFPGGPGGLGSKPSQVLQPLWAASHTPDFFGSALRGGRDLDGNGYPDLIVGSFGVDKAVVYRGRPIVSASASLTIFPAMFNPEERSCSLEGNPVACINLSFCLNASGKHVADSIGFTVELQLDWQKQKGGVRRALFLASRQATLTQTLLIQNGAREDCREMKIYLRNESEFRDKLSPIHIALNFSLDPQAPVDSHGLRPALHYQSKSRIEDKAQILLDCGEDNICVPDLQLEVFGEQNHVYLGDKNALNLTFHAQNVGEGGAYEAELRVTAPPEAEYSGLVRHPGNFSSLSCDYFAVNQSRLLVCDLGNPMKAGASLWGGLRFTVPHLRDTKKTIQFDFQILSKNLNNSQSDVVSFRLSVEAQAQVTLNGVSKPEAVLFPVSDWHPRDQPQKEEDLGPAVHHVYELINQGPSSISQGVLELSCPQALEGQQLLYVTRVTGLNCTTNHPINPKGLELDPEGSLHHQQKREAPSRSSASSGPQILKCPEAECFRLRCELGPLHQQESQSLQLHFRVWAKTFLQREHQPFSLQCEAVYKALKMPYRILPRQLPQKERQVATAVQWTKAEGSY
# Sequence (P05556 21-728 limits assumed): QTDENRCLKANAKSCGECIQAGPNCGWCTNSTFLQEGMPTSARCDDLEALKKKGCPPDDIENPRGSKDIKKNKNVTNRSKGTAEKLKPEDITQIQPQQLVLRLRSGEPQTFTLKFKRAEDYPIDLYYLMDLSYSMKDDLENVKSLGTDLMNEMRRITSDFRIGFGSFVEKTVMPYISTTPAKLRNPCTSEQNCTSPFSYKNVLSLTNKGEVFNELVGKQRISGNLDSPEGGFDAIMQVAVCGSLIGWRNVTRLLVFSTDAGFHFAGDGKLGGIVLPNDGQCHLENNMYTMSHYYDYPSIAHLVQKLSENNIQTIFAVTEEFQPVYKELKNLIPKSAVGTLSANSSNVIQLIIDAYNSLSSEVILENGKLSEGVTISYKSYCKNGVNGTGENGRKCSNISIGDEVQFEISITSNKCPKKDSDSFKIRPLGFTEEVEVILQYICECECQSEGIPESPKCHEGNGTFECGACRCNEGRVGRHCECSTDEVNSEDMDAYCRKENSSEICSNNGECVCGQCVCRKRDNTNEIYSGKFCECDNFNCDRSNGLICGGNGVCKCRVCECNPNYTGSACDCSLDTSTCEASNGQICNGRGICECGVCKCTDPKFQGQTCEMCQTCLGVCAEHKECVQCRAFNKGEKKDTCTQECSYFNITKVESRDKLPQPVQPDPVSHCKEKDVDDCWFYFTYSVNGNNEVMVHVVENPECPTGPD
# Experimental details: Solid Phase Receptor Assay (SPRA) for α5β1 function
# Test parameters: plate-bound human fibronectin
Where a name gives a salt, the structure may show the parent alone.
Result type: IC50 (nM)
Number only, in nM; omit the unit.

Prompt: Query the reported IC50 for Recombinant human integrin α5β1 (Homo sapiens, UniProt P05556+P08648); item: Cn1nc(CC(CC(=O)O)c2ccc(Br)c(F)c2)cc1OCCc1ccc2c(n1)NCCC2 (centres unmarked)
Completion: 343

Prompt: Query the reported IC50 for Recombinant human integrin α5β1 (Homo sapiens, UniProt P05556+P08648); item: COCC1(c2cc(F)cc(C(CC(=O)O)Cc3cc(OCCc4ccc5c(n4)NCCC5)n(C)n3)c2)CCOCC1 (centres unmarked)
Completion: 12

Prompt: Query the reported IC50 for Recombinant human integrin α5β1 (Homo sapiens, UniProt P05556+P08648); item: Cn1nc(CC(CC(=O)O)c2cc(C#N)cc(C3(C(F)F)CC3)c2)cc1OCCc1ccc2c(n1)NCCC2 (centres unmarked)
Completion: 5.5

Prompt: Query the reported IC50 for Recombinant human integrin α5β1 (Homo sapiens, UniProt P05556+P08648); item: COc1ccc(C#N)cc1C(CC(=O)O)Cc1cc(OCCc2ccc3c(n2)NCCC3)n(C)n1 (centres unmarked) [Example 46, Trifluoroacetate]
Completion: 51

Prompt: Query the reported IC50 for Recombinant human integrin α5β1 (Homo sapiens, UniProt P05556+P08648); item: CC(C)Oc1ccc(C(C)(C)C)cc1C(CC(=O)O)Cc1cc(OCCc2ccc3c(n2)NCCC3)n(C)n1 (centres unmarked) [Example 35, Trifluoroacetate]
Completion: 75
